B1: WDR88 (parent)
chain: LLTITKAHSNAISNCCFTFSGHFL

# Variants of: B1
# RUN_DESCRIPTION: protein stability index of a GFP-peptide fusion (GPS, HEK-293T) (PSI 1-6); higher = more stable;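 also: lentivirally expressed fusions sorted by FACS into six bins by GFP to DsRed ratio, PSI derived from sequencing read proportions per bin multiplied by bin number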
# CONDITION_CONTEXT: c terminus: a fixed tail appended
Here, each record is paired with measured protein stability index data.
Please state the value as a number alone, without comment.

Some variants with recorded protein stability index:
F19G
2.62
S20M
2.56
A11P
3.08
L1Q
1.59
F17N
2.58

Now examine the next entry.
Q. State, in one line, measured protein stability index of I12F
A. 3.3
